Data provenance: ChEMBL document CHEMBL1121617

Consider the following compounds; for each one, report its SP.
test system: Rattus norvegicus; experiment: Starting systolic blood pressure at dose of 50 mg/kg in rat; assay type: functional, Artery; conditions: 50 mg/kg
// note: answer is a bare numeric in mmHg

According to the records, this compound O=C(NC(=O)c1ccccc1)NC1CCN(CC(O)C2COc3ccccc3O2)CC1 (stereo in doubt; 29) displays SP of 178

According to the records, this compound O=C(Nc1ccccc1)NC1CCN(CC(O)C2COc3ccccc3O2)CC1 (stereo in doubt; 30) displays SP of 182

According to the records, this compound O=C(Nc1ccccc1)NC1CCN(CC(O)C2COc3ccccc3O2)CC1 (stereo in doubt; 31) displays SP of 171

According to the records, this compound O=C(NC(=O)c1ccccc1)NC1CCN(CC(O)C2COc3ccccc3O2)CC1 (stereo in doubt; 28) displays SP of 174

* * *

system: Rattus norvegicus; assay: The percent fall in systolic blood pressure at 1.5 / 4 hr after peroral administration of 25 mg/kg in DOCA/saline hypertensive rats at 6 hr; assay type: functional, Artery; settings: route oral
TEST READOUT: Fall

According to the records, this molecule O=C(NC(=O)C1CCCCC1)NC1CCN(CCc2c[nH]c3ccccc23)CC1 displays Fall of 54%

According to the records, this molecule O=C(NC(=O)c1ccccc1)NC1CCN(CCc2c[nH]c3ccccc23)CC1 displays Fall of 48%

According to the records, this molecule O=C(NC(=O)c1cccs1)NC1CCN(CCc2c[nH]c3ccccc23)CC1 displays Fall of 46%

According to the records, this molecule O=C(NC(=O)c1ccccc1)NC1CCN(CCCC(=O)c2ccccc2)CC1 displays Fall of 26%

According to the records, this molecule O=C(NC(=O)c1cccs1)NC1CCN(CCCC(=O)c2ccc(F)cc2)CC1 displays Fall of 28%

According to the records, this molecule O=C(NC1CCN(CCc2c[nH]c3ccccc23)CC1)c1ccccc1 [INDORAMIN] displays Fall of 29%

According to the records, this molecule CN(C(=O)Nc1ccccc1)C1CCN(CCc2c[nH]c3ccccc23)CC1 displays Fall of 38%

* * *

test system: Rattus norvegicus; test: The percent fall in systolic blood pressure at 1.5 / 4 hr after peroral administration of 25 mg/kg in DOCA/saline hypertensive rats at 2 hr; type: functional, Artery; settings: route oral
Answer -1 if Fall is under 40%, and 1 if it is 40% or more.

In: Hello, I need to know if CN(C(=O)Nc1ccccc1)C1CCN(CCc2c[nH]c3ccccc23)CC1 has measured Fall not below 40%. Thanks!
Out: 1

In: Hello, I need to know if O=C(NC1CCN(CCc2c[nH]c3ccccc23)CC1)c1ccccc1 has measured Fall not below 40%. Thanks!
Out: -1

In: Hello, I need to know if O=C(NC(=O)c1cccs1)NC1CCN(CCCC(=O)c2ccc(F)cc2)CC1 has measured Fall not below 40%. Thanks!
Out: -1

In: Hello, I need to know if O=C(NC(=O)C1CCCCC1)NC1CCN(CCc2c[nH]c3ccccc23)CC1 has measured Fall not below 40%. Thanks!
Out: 1

In: Hello, I need to know if O=C(NC(=O)c1cccs1)NC1CCN(CCc2c[nH]c3ccccc23)CC1 has measured Fall not below 40%. Thanks!
Out: 1

In: Hello, I need to know if O=C(NC(=O)c1ccccc1)NC1CCN(CCc2c[nH]c3ccccc23)CC1 has measured Fall not below 40%. Thanks!
Out: 1

In: Hello, I need to know if O=C(NC(=O)c1ccccc1)NC1CCN(CCCC(=O)c2ccccc2)CC1 has measured Fall not below 40%. Thanks!
Out: -1
